Known MIC of a selection of compounds
# Tested on: Escherichia coli
# protocolSummary: Antibacterial activity against Escherichia coli RCMB 010052 after 24 hrs by twofold serial dilution technique
# Format: functional
# testParameters: RCMB 010052, 24 h
reportedMetric: MIC (mM)

# compound, recordedMeasurement
records = [
    ("NS(=O)(=O)c1ccc(NC(=O)Cn2nc(Cc3ccccc3)c3ccccc3c2=O)cc1", 6.25),
    ("Nc1ccc(S(=O)(=O)Nc2ncccn2)cc1", 100),
    ("COc1ccc(Cc2nn(CCC(=O)Nc3ccc(S(N)(=O)=O)cc3)c(=O)c3ccccc23)cc1", 3.12),
    ("Nc1ccc(S(N)(=O)=O)cc1 [SULFANILAMIDE]", 25),
    ("O=C(Cn1nc(-c2ccc(Cl)cc2)c2ccccc2c1=O)Nc1ccc(S(=O)(=O)Nc2nccs2)cc1", 0.39),
    ("NS(=O)(=O)c1ccc(NC(=O)Cn2nc(-c3ccccc3)c3ccccc3c2=O)cc1", 12.5),
    ("COc1ccc(Cc2nn(CC(=O)Nc3ccc(S(=O)(=O)Nc4ncccn4)cc3)c(=O)c3ccccc23)cc1", 25),
    ("O=C(Cn1nc(-c2ccccc2)c2ccccc2c1=O)Nc1ccc(S(=O)(=O)Nc2ncccn2)cc1", 25),
    ("COc1ccc(Cc2nn(CC(=O)Nc3ccc(S(N)(=O)=O)cc3)c(=O)c3ccccc23)cc1", 3.12),
]
